- Tested on: SF-295 CNS
- Procedure summary: NCI tumour cell line growth inhibition, 48 h
Where a SMILES comes first, the peptide text is derived from it. The star is where a group is joined. Boc = CC(C)(C)OC(=O)*; OtBu = CC(C)(C)O*
Reported property: TGI

Prompt line: Using known records, supply TGI for N#Cc1nc(CCC(C(=O)O)N2C(=O)c3ccccc3C2=O)oc1N (centres undefined)
Response line: > 100 µM

Prompt line: Identify the reported TGI for the following entry. `C=C1C(=O)O[C@H]2[C@H]1CC/C(COC(=O)NCc1ccc(Cn3c(=O)sn(CCCI)c3=O)cc1)=C\CC[C@@]1(C)O[C@@H]21`
Response line: 30.8 µM

Prompt line: Give reported TGI value for CC1=C(C(N)=O)C(c2ccncc2)C(C#N)C(=O)N1 (centres undefined)
Response line: > 100 µM

Prompt line: Return value of TGI for input COc1nc2c(c(=O)[nH]1)N=C(c1ccc([N+](=O)[O-])cc1)CC(c1ccccc1)N2 (centres undefined) , no commentary.
Response line: > 100 µM

Prompt line: Supply recorded TGI for `Cc1n[nH]c(C)c1-c1c(C)n[nH]c1C` here.
Response line: 3.63 µM

Prompt line: Indicate its recorded TGI; the molecule in question is `Cc1ccc(CNc2ccc(Cl)cc2NCc2ccc(C)c(O)c2)cc1O`
Response line: 15.2 µM

Prompt line: Look up and state reported TGI for `O=[N+]([O-])c1ccc(-c2ccc([C@H]3CC(c4cc(F)c(Cl)cc4Cl)=NN3)o2)cc1`
Response line: > 100 µM

Prompt line: # return recorded TGI for entry `CN(C)c1ccc(-c2cc(-c3cccc(NS(C)(=O)=O)c3)nc(N)c2C#N)cc1`
Response line: 3.95 µM

Prompt line: Supply recorded TGI for Cc1cc(C)c(CNC(=O)c2cc(Cl)c3c(c2C)O[C@@](C)(C2CCC(N(C)C)CC2)O3)c(=O)[nH]1 (some centres undefined) here.
Response line: > 100 µM

Prompt line: Note down TGI recorded for `C=CN(C(=O)N1CCN(c2cc3c(cc2F)c(=O)c(C(=O)O)cn3C2CC2)CC1)c1nc(-c2ccc(C)cc2)cs1`
Response line: 7.11 µM

Prompt line: Give TGI for `O=C(O)c1ccc2nc(-c3ccccn3)c(-c3ccccn3)nc2c1`
Response line: > 100 µM

Prompt line: Supply TGI value. Item: `Cc1c(CNc2ccc(Cl)c(Cl)c2Cl)cnc2nc(N)nc(N)c12`
Response line: 3.16 µM

Prompt line: Read off the recorded TGI for `CCOc1ccc(/C=C/C(=O)c2sc(NNC(C)=O)nc2C)cc1`
Response line: > 100 µM

Prompt line: Kindly indicate its recorded TGI. Item: `NS(=O)(=O)c1ccc(NCc2cccc3c(=O)c4ccc(Cl)cc4oc23)cc1`
Response line: > 100 µM

Prompt line: Return reported TGI. Input molecule: `O[C@@H]1CCCCN1Cc1cc2cc3c(cc2c2cc(OCc4ccccc4)ccc12)OCO3`
Response line: 3.03 µM

Prompt line: State its TGI: `COc1ccc2nc3cc(Cl)ccc3c(NCCCN(C)CCCNc3ccc4ncn5c6ccccc6c(=O)c3c45)c2c1`
Response line: 5.37 µM

Prompt line: Query TGI for O=P(c1ccccc1)(c1ccccc1)C1CC=C2CCCCCC2C1 (centres undefined)
Response line: > 100 µM

Prompt line: Give the reported TGI for this molecule. `CCOC(=O)c1nc2ccccc2nc1Oc1ccc(F)cc1`
Response line: > 100 µM

Prompt line: State its TGI: CCCCP1(=O)C=CC(Cl)=C(C)C1 (centres undefined)
Response line: > 100 µM

Prompt line: Specify TGI for CC(C)(C)OC(=O)CC(NC(=O)OC(C)(C)C)C(=O)NC(Cc1ccccc1)C(N)=O (centres undefined) (Boc-Asp(OtBu)-Phe-NH2; configuration not given here) and stop.
Response line: > 100 µM

Prompt line: State its TGI: `Cc1ccc(Nc2nc3ccccc3nc2NS(=O)(=O)c2ccc(N)cc2)cc1`
Response line: > 100 µM

Prompt line: Write down TGI measured for item `c1ccc2sc(C3(N4CCCCCC4)CCCCC3)cc2c1`
Response line: 59.1 µM

Prompt line: Specify TGI for O=C(O)OC12CCCCCC1C(=O)C1CCCCC12 (centres undefined) and stop.
Response line: > 100 µM

Prompt line: Provide one value: measured TGI of `CSc1ccc(/C=C2\N=C(c3ccccc3)N(NC(=O)c3c(Cl)c(Cl)c(Cl)c(Cl)c3-c3nc4ccccc4[nH]3)C2=O)cc1`
Response line: > 100 µM

Prompt line: Return TGI (reported value) for this molecule: `Fc1cnccc1-c1nc2ccc3[nH]ncc3c2c2c1CCCC2`
Response line: > 100 µM

Prompt line: Complete the entry with TGI for `CSC(SC)=C1Sc2cccc(Cl)c2S1`
Response line: > 100 µM

Prompt line: Annotate the molecule CCCN1CCCC(c2ccc(Nc3nc(Nc4cc(F)ccc4C(N)=O)c4cc[nH]c4n3)c(OC)c2)C1 (centres undefined) with its measured TGI.
Response line: 7.16 µM

Prompt line: Annotate the molecule `C/C(=N\NC(N)=S)c1ccc(Oc2ccccc2)cc1` with its measured TGI.
Response line: 38.4 µM

Prompt line: Specify measured TGI for `COC(=O)C#CC1(O)C=CC(=O)C=C1` .
Response line: > 41.8 µM

Origin of measurements: PubChem BioAssay (NCI)
